biological target: CA IX (Homo sapiens); test: biochemical; details: read-out: pKi (exp.) (converted)
Please respond with reported Ki for every item in the list.
One number for each entry, in nM.

Below are worked cases with known answers.
smiles_text=NS(=O)(=O)c1ccc(-c2cn([C@H]3O[C@H](CO)[C@@H](O[C@@H]4O[C@H](CO)[C@@H](O)[C@H](O)[C@@H]4O)[C@H](O)[C@@H]3O)nn2)cc1 attribute_measured=Ki recorded_measurement=130
smiles_text=CC(=O)OC[C@@H]1O[C@@H](OCc2cn(-c3ccc(S(N)(=O)=O)cc3)nn2)[C@H](OC(C)=O)[C@@H](OC(C)=O)[C@H]1OC(C)=O attribute_measured=Ki recorded_measurement=107
smiles_text=Cc1cccc(/C=N/CCc2ccc(S(N)(=O)=O)cc2)c1O attribute_measured=Ki recorded_measurement=295

Provide Ki values for the following items, in order.
1. NS(=O)(=O)c1ccc(C(=O)NNC(=O)Nc2ccc([C@]34C[C@H]5C[C@H](C[C@H](C5)C3)C4)cc2)cc1
2. NOS(=O)(=O)N[C@H]1C=C[C@H](O)CO1
3. NS(=O)(=O)c1ccc(C(=O)NCc2cn([C@H]3O[C@@H](CO)[C@H](O)[C@@H](O)[C@@H]3O)nn2)cc1
4. CC(=O)/N=C1\SC(S(N)(=O)=O)=N[C@@H]1C
5. NS(=O)(=O)c1ccc(-n2cc(CO[C@H]3O[C@@H](CO)[C@H](O)[C@H](O)[C@@H]3O)nn2)cc1

A)
24
91
442
8.99
101

Q) // lookup Ki for C/C(=N/Nc1ccc(S(N)(=O)=O)cc1)c1cc2cc(Br)ccc2oc1=O
A) 24

###

Please respond with reported log10 of Ki in nM for every item in the list.
molecular target: CA IX (Homo sapiens, UniProt Q16790); experiment: biochemical; details: experimental value used for the QSPR model, library compounds (IDs A…, B…); equals log10 of Ki in nM
Give bare numbers.

Below are worked cases with known answers.
compound="NS(=O)(=O)c1ccc(CCNC(=S)Nc2ccc(C(=O)O)cc2)cc1 [A0666]" recorded_measurement=1.000
compound="NS(=O)(=O)c1ccc(CCNCc2cc(Cl)cc(Cl)c2O)cc1 [A0260]" recorded_measurement=0.613
compound="Cc1cccc(Nc2nc(Cl)nc(Nc3ccc(S(N)(=O)=O)cc3)n2)c1 [A0317]" recorded_measurement=0.708
compound="NS(=O)(=O)c1ccc(/N=C/c2ccccc2)c(F)c1 [A1026]" recorded_measurement=1.447
compound="CCCC(=O)OC[C@H]1O[C@@H](n2cc(-c3ccc(S(N)(=O)=O)cc3)nn2)[C@H](OC(=O)CCC)[C@@H](OC(=O)CCC)[C@H]1OC(=O)CCC [A1285]" recorded_measurement=1.714

Q) // lookup log10 of Ki in nM for NS(=O)(=O)c1ccc(-n2cc(-c3ccc(Br)cc3)c3c2ncn2nc4c5ccccc5nc-4nc32)cc1 [B0025]
A) 0.431

###

Please respond with reported logkw for every item in the list.
assay: RP-LC chromatographic lipophilicity (logkw); format: physicochemical; conditions: chromatographic lipophilicity from gradient RP-LC, Luna RP-C18, water/acetonitrile with 0.1% formic acid, 30 °C
One number for each entry.

molecule="Cc1cc(S(=O)(=O)NC(=N)Nc2cccc(S(N)(=O)=O)c2)c(SCc2cc3c(cc2Cl)OCO3)cc1Cl [C121]" recorded_measurement=3.990
molecule="Cc1cc(S(=O)(=O)NC(=N)Nc2ccccc2S(N)(=O)=O)c(SCc2cccc(C(F)(F)F)c2)cc1Cl [C102]" recorded_measurement=4.430
molecule="Cc1cc(S(=O)(=O)NC(=N)Nc2ccc(S(N)(=O)=O)cc2)c(SCc2cc3c(cc2Cl)OCO3)cc1Cl [C120]" recorded_measurement=4.070
molecule="Cc1cc(S(=O)(=O)NC(=N)NCc2ccc(S(N)(=O)=O)cc2)c(SCc2cc3c(cc2Cl)OCO3)cc1Cl [C123]" recorded_measurement=3.850
molecule="Cc1cc(S(=O)(=O)NC(=N)Nc2cccc(S(N)(=O)=O)c2)c(SCc2ccccc2)cc1Cl [C95]" recorded_measurement=3.930

Provide logkw values for the following items, in order.
1. Cc1cc(S(=O)(=O)NC(=N)Nc2cccc(S(N)(=O)=O)c2)c(SCc2ccc(C(F)(F)F)cc2)cc1Cl [C106]
2. Cc1cc(S(=O)(=O)NC(=N)NCc2ccc(S(N)(=O)=O)cc2)c(SCc2ccc(C(F)(F)F)cc2)cc1Cl [C109]
3. Cc1cc(S(=O)(=O)NC(=N)Nc2ccc(S(N)(=O)=O)cc2)c(SCc2ccc(C(F)(F)F)cc2)cc1Cl [C105]
4. Cc1cc(S(=O)(=O)NC(=N)Nc2ccc(S(N)(=O)=O)cc2)c(SCc2cccc3ccccc23)cc1Cl [C111]
5. Cc1cc(S(=O)(=O)NC(=N)Nc2ccc(S(N)(=O)=O)cc2)c(SCc2ccccc2)cc1Cl [C94]

A)
1: 4.540; 2: 4.590; 3: 4.550; 4: 3.900; 5: 4.050

###

biological target: CA IX (Homo sapiens); assay: biochemical; conditions: experimental value from the library Ki (IDs A…, B…); values equal log10 of Ki in nM
One threshold, 0.9, splits the recorded log10 of Ki in nM values: lower ones are Condition met, equal or higher ones are Condition not met.

compound="NS(=O)(=O)c1ccc(-c2cnc(C3CCC3)o2)s1 [B0649]" assay_target="CA IX (Homo sapiens)" qualitative_label="Condition not met"
compound="NS(=O)(=O)Nc1ccc(S(=O)(=O)Nc2nnc(S(N)(=O)=O)s2)cc1 [A1288]" assay_target="CA IX (Homo sapiens)" qualitative_label="Condition not met"
compound="Cc1ccc(-c2nn(-c3ccc(S(N)(=O)=O)cc3)cc2-c2nc3ccccc3[nH]2)cc1 [A1267]" assay_target="CA IX (Homo sapiens)" qualitative_label="Condition not met"
compound="Nc1nc(N)c2nc(CNCCc3ccc(S(N)(=O)=O)cc3)cnc2n1 [A0285]" assay_target="CA IX (Homo sapiens)" qualitative_label="Condition met"
compound="NS(=O)(=O)c1ccc(NC(=O)N2CCN(CCO)CC2)cc1 [A1995]" assay_target="CA IX (Homo sapiens)" qualitative_label="Condition not met"

Q) A record lists CCCN(CCC)S(=O)(=O)c1ccc(C(=O)N[C@@H](CS)C(=O)O)cc1 [A1793] . Is its log10 of Ki in nM below 0.9?
A) Condition not met

Q) How about this compound: NS(=O)(=O)c1cnccc1-n1ccc(=O)cc1 [A0836]
A) Condition not met

Q) How about this compound: O=C1c2ccccc2S(=O)(=O)N1Cc1cccc([N+](=O)[O-])c1 [A0700]
A) Condition not met

Q) How about this compound: NS(=O)(=O)c1nnc(NS(=O)(=O)c2ccc(NC(=O)CCC(=O)O)cc2)s1 [A0151]
A) Condition met

Q) How about this compound: NS(=O)(=O)c1ccc(CNC(=O)CCCNC(=O)NCc2ccccc2)cc1 [A2003]
A) Condition not met

Q) How about this compound: COC(=O)c1cn(-c2ccc(S(N)(=O)=O)cc2)nc1-c1ccc(F)cc1 [A0626]
A) Condition not met

Q) How about this compound: NS(=O)(=O)c1ccc(NCc2cc(Br)ccc2O)cc1 [A0114]
A) Condition met

Q) How about this compound: CCCN(CCC)S(=O)(=O)c1ccc(C(=O)Nc2ccccc2[N+](=O)[O-])cc1 [A1771]
A) Condition not met

Q) How about this compound: NS(=O)(=O)c1ccc(CNS(=O)(=O)c2ccc(NC(=O)c3c(F)c(F)cc(F)c3F)cc2)cc1 [A0340]
A) Condition met

###

biological target: CA IX (Homo sapiens, UniProt Q16790); assay: biochemical; details: experimental value from the library Ki (IDs A…, B…); values equal log10 of Ki in nM
Classification field: Fulfilled = log10 of Ki in nM at or over 0.9; Not fulfilled = log10 of Ki in nM under 0.9.

smiles_text=COc1ccc(-c2cn(-c3ccc(S(N)(=O)=O)cc3)c(=S)[nH]2)cc1 qualitative_label=Fulfilled
smiles_text=CCCN(CCC)S(=O)(=O)c1ccc(C(=O)N[C@@H](CCC(=O)O)C(N)=O)cc1 qualitative_label=Fulfilled
smiles_text=COc1ccc(C2=Nn3c(nnc3-c3ccc(S(N)(=O)=O)cc3)SC2)cc1 qualitative_label="Not fulfilled"

Next compound, please.
Q) Could you please find out whether O=S1(=O)C=Cc2cc(-c3nnnn3-c3cccc4ccccc34)ccc2O1 has log10 of Ki in nM that meets 0.9 or exceeds it?
A) Not fulfilled
